pIC50: −log10 of the molar value.
# collection of pIC50 values tested on rat mGlu2 (Rattus norvegicus, UniProt P31421)
# Sequence (P31421 19-872): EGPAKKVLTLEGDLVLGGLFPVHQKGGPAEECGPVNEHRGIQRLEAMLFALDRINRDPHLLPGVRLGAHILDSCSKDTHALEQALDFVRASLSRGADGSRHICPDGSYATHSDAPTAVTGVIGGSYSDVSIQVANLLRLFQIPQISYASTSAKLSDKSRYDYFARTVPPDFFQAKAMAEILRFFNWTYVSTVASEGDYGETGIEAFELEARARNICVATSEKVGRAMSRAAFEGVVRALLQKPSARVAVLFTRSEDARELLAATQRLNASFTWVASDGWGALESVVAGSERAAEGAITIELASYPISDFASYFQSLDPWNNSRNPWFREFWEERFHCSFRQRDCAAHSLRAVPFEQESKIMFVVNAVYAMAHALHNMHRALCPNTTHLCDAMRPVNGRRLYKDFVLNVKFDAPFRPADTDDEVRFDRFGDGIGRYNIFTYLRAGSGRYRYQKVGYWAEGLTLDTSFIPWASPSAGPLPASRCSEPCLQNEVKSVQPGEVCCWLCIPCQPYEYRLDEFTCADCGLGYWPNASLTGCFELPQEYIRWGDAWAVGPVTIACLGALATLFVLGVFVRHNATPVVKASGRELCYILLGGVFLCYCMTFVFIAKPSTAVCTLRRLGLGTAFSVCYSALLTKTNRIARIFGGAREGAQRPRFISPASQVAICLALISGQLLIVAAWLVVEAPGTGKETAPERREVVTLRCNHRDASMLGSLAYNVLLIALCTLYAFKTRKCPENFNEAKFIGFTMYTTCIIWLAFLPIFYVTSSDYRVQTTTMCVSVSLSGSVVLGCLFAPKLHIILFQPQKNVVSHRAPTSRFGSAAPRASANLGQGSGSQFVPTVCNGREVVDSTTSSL

>>> measured_result("CC1CC(c2cc3c(cc2-c2ccc(F)cc2)C(=O)NC3)CCN1 (centres unmarked)")
"< 5.00"
>>> measured_result("O=C1NCc2cc(-c3ccc4ncsc4c3)c(-c3ccc(F)cc3)cc21")
"< 5.00"
>>> measured_result("O=C1NCc2cc(C3CCNC3)c(-c3ccc(F)cc3)cc21 (centres unmarked)")
"< 5.00"

Ask: Quick one: pIC50 for Cn1cc2cc(-c3cc4c(cc3-c3ccc(F)cc3)C(=O)NC4)cnc2n1 ?
Reply: < 5.00

Ask: So what's the measured pIC50 for this one? O=C1NCc2cc(-c3ccn(C4CC4)n3)c(-c3ccc(F)cc3F)cc21
Reply: 6.46

Ask: Endpoint output: pIC50 of O=C1NCc2cc(-c3ccc4cccnc4c3)c(-c3ccc(F)cc3)cc21 . Value?
Reply: 5.36

Ask: Tell me the measured pIC50 of Cc1ncccc1-c1cc2c(cc1-c1ccc(F)cc1)C(=O)NC2 , please.
Reply: < 5.00

Ask: Please report the recorded pIC50 for CC1(C)CNCC=C1c1cc2c(cc1-c1ccc(F)cc1)C(=O)NC2 .
Reply: < 5.00

* * *

target: rat mGlu2 (Rattus norvegicus)
Readings of pIC50 for the listed compounds
As a rule, pIC50 stands for the negative log10 of the concentration, concentration in M.

>>> measured_result("N#Cc1cc(-c2cc3c(cc2-c2ccc(F)cc2F)C(=O)NC3)ccc1F")
5.82
>>> measured_result("Cc1ccc(-c2cc3c(cc2-c2ccc(F)cc2)C(=O)NC3)nc1")
6.02

Proceed to the following item.
Ask: For the compound Cn1cc2ccc(-c3cc4c(cc3-c3ccc(F)cc3F)C(=O)NC4)cc2n1 , what pIC50 is on record?
Reply: 5.63

* * *

Quick note: these are IC50 numbers for system: UniProtKB P31421

>>> measured_result("CN1CCC(c2cc3c(cc2-c2ccc(F)cc2)C(=O)NC3)CC1 [Compound 66]")
"> 10 µM"
>>> measured_result("O=C1NCc2cc(-c3cccnc3N3CCCC3)c(-c3ccc(F)cc3F)cc21 [Compound 102]")
"> 10 µM"

We now examine a further molecule.
Ask: What does the data say about its IC50? Entry: CC1CNCCC1c1cc2c(cc1-c1ccc(F)cc1)C(=O)NC2 (stereo not drawn) [Compound 77]
Reply: > 10 µM
